Tested on: CCRIS mutagenicity, Ames/micronucleus/aberration tests
Assay: CCRIS mutagenicity studies
Settings: Test System: AMES SALMONELLA TYPHIMURIUM; Strain/Indicator: TA98; Metabolic Activation: RAT, LIVER, S-9, PHENOBARBITAL AND 5,6-BENZOFLAVONE; Method: PREINCUBATION
Activity calls are given as the source filed them. The rule behind the calls is not given here.
# valid calls are active, inactive; nothing else

Record excerpt, results attached:
{"columns": ["MOLECULE", "CLASS LABEL"],
 "data": [
  ["O=C(O)C(Cl)(Cl)Cl", "inactive"],
  ["O=C(O)C(=O)O", "inactive"],
  ["COC(=O)C1=C(C)NC(COC(N)=O)=C(C(=O)OC(C)C)C1c1cccc(Cl)c1Cl (configuration not stated)", "inactive"],
  ["COc1cc(O)c2c(=O)c3cc(O)ccc3oc2c1", "inactive"],
  ["O=C(O)C(Cl)Br (configuration not stated)", "inactive"]
]}

-- ask # fetch the recorded call for CCCOC(C(=O)OC1CCN(C)CC1)(c1ccccc1)c1ccccc1 here
-- reply inactive

-- ask Assay result, entry O=C(O)c1ccccc1C(=O)O — outcome?
-- reply inactive

-- ask Kindly provide the recorded test outcome for the following molecule: COC1=C(OC)C(=O)C(C/C=C(\C)CC/C=C(\C)CC/C=C(\C)CC/C=C(\C)CC/C=C(\C)CC/C=C(\C)CC/C=C(\C)CC/C=C(\C)CC/C=C(\C)CCC=C(C)C)=C(C)C1=O
-- reply inactive
